conditions: 318.15 K; 101 kPa; Liquid; Pycnometric method
measure name: mass density (kg/m3)

INSERT INTO assay_data (compound, unit_annotation, recorded_number) VALUES
  ('C=C(C)C(=O)OCCO [2-hydroxyethyl 2-methyl-2-propenoate]', 'kg/m3', 1048.6),
  ('COCC(C)O (centres undefined)', 'kg/m3', 896.9),
  ('C=C(C)C(=O)OCc1ccccc1 [benzyl methacrylate]', 'kg/m3', 1017),
  ('C=C(C)C(=O)O', 'kg/m3', 989.2);

---

settings: 308.15 K; 101 kPa; Liquid; Pycnometric method
measure name: mass density (kg/m3)

INSERT INTO results (compound, measure_name, recorded_number) VALUES
  ('C=C(C)C(=O)OCc1ccccc1 [benzyl methacrylate]', 'mass density', 1025.8),
  ('COCC(C)O (centres undefined) [1-methoxy-2-propanol]', 'mass density', 907.1),
  ('C=C(C)C(=O)OCCO [2-hydroxyethyl 2-methyl-2-propenoate]', 'mass density', 1057.7),
  ('C=C(C)C(=O)O [2-methyl-2-propenoic acid]', 'mass density', 999.4);

---

conditions: 318.15 K; 101 kPa; Liquid; Capillary tube (Ostwald / Ubbelohde) method
measure name: viscosity (mPa·s)

INSERT INTO results (compound, measure_name, unit_annotation, recorded_number) VALUES
  ('COCC(C)O (centres undefined)', 'viscosity', 'mPa·s', 1.069);

(a) C=C(C)C(=O)O
(b) C=C(C)C(=O)OCCO [2-hydroxyethyl 2-methyl-2-propenoate]
(c) C=C(C)C(=O)OCc1ccccc1 [benzyl methacrylate]
Order the 3 compounds from highest to lowest viscosity. Quick reminder: the answer is the labels in the order asked.
b, c, a

---

details: 298.15 K; 101 kPa; Liquid; Capillary tube (Ostwald / Ubbelohde) method
measure name: viscosity (mPa·s)

INSERT INTO measurements (molecule, recorded_number) VALUES
  ('C=C(C)C(=O)OCCO [2-hydroxyethyl 2-methyl-2-propenoate]', 5.784),
  ('COCC(C)O (centres undefined) [1-methoxy-2-propanol]', 1.707);

(P) C=C(C)C(=O)O [2-methyl-2-propenoic acid]
(Q) C=C(C)C(=O)OCc1ccccc1 [benzyl methacrylate]
# returns the entry with the larger viscosity; inputs P and Q Please identify the chosen entry by its label.
Q

---

conditions: 308.15 K; 101 kPa; Liquid; Capillary tube (Ostwald / Ubbelohde) method
measure name: viscosity (mPa·s)

Some compounds with known viscosity results, for comparison:
INSERT INTO assay_data (compound, measure_name, recorded_number) VALUES
  ('C=C(C)C(=O)OCc1ccccc1 [benzyl methacrylate]', 'viscosity', 1.885),
  ('COCC(C)O (centres undefined)', 'viscosity', 1.306);

(P) C=C(C)C(=O)OCCO [2-hydroxyethyl 2-methyl-2-propenoate]
(Q) C=C(C)C(=O)O
# returns the entry with the larger viscosity; inputs P and Q Please identify the chosen entry by its label.
P
(P: 4.194 mPa·s, Q: 1.078 mPa·s)

---

conditions: 298.15 K; 101 kPa; Liquid; Pycnometric method
measure name: mass density (kg/m3)

INSERT INTO results (molecule, measure_name, unit_annotation, recorded_number) VALUES
  ('C=C(C)C(=O)OCc1ccccc1 [benzyl methacrylate]', 'mass density', 'kg/m3', 1034.7),
  ('C=C(C)C(=O)O', 'mass density', 'kg/m3', 1009.5),
  ('COCC(C)O (centres undefined)', 'mass density', 'kg/m3', 915.9),
  ('C=C(C)C(=O)OCCO [2-hydroxyethyl 2-methyl-2-propenoate]', 'mass density', 'kg/m3', 1067.1);
